Item-by-item account of viability, T/C
Test system: HUVEC/MSC spheroids viability
Assay: Human HUVEC/MSC cell line growth inhibition [KRAS2];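 further: percent of DMSO vehicle control luminescence so 100% = untreated viability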
Settings: second compound 10 µM; first compound 3.16 µM; active compounds read low
A number alone suffices; assume %.

Use these answered entries as a reference point.
- compound: "CC1(C)CCC(CN2CCN(c3ccc(C(=O)NS(=O)(=O)c4ccc(NCC5CCOCC5)c([N+](=O)[O-])c4)c(Oc4cnc5[nH]ccc5c4)c3)CC2)=C(c2ccc(Cl)cc2)C1 + CNCc1ccccc1-c1csc(C(C)Nc2nc(C)nc3cc(OC)c(OC)cc23)c1"
  value measured: 0.36
- compound: "CC1OCC2(CCN(c3cnc(Sc4ccnc(N)c4Cl)c(N)n3)CC2)C1N (stereo not given) + CNCc1ccccc1-c1csc(C(C)Nc2nc(C)nc3cc(OC)c(OC)cc23)c1"
  value measured: 0.4

Q. For the compound shown here, COc1cc(Nc2ncc3c(n2)-c2ccc(Cl)cc2C(c2c(F)cccc2OC)=NC3)ccc1C(=O)O + CC1OCC2(CCN(c3cnc(Sc4ccnc(N)c4Cl)c(N)n3)CC2)C1N , give the reported viability, T/C.
A. 70.8

Q. Give its viability, T/C value. Item: CCNC(=O)CC1N=C(c2ccc(Cl)cc2)c2cc(OC)ccc2-n2c(C)nnc21 (stereo not given) + COc1cc2nc(C)nc(NC(C)c3cc(N)cc(C(F)(F)F)c3)c2cc1OC1CCOC1
A. 82.1

----------
Tested on: HUVEC/MSC spheroids viability
Test: Human HUVEC/MSC cell line growth inhibition [KRAS2];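 further: percent of DMSO vehicle control luminescence so 100% = untreated viability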
Conditions: second compound 1 µM; first compound 0.0316 µM; active compounds read low
Binning scheme for viability, T/C: lower band = under 80%, central band = from 80% up to 90%, upper band = 90% and over

- molecule: "CC1OCC2(CCN(c3cnc(Sc4ccnc(N)c4Cl)c(N)n3)CC2)C1N (stereo unspecified) + CNCc1ccccc1-c1csc(C(C)Nc2nc(C)nc3cc(OC)c(OC)cc23)c1"
  tested target: "HUVEC/MSC spheroids viability"
  assigned label: "lower band"
- molecule: "O=C(c1cc(Cc2n[nH]c(=O)c3ccccc23)ccc1F)N1CCN(C(=O)C2CC2)CC1 + CC1OCC2(CCN(c3cnc(Sc4ccnc(N)c4Cl)c(N)n3)CC2)C1N"
  tested target: "HUVEC/MSC spheroids viability"
  assigned label: "central band"
- molecule: "CC1(C)CCC(CN2CCN(c3ccc(C(=O)NS(=O)(=O)c4ccc(NCC5CCOCC5)c([N+](=O)[O-])c4)c(Oc4cnc5[nH]ccc5c4)c3)CC2)=C(c2ccc(Cl)cc2)C1 + CNCc1ccccc1-c1csc(C(C)Nc2nc(C)nc3cc(OC)c(OC)cc23)c1"
  tested target: "HUVEC/MSC spheroids viability"
  assigned label: "lower band"
- molecule: "CCNC(=O)CC1N=C(c2ccc(Cl)cc2)c2cc(OC)ccc2-n2c(C)nnc21 (stereo unspecified) + C=CC(=O)N1CCN(c2nc(=O)n(-c3c(C)ccnc3C(C)C)c3nc(-c4c(O)cccc4F)c(F)cc23)C(C)C1"
  tested target: "HUVEC/MSC spheroids viability"
  assigned label: "upper band"
- molecule: "CC1(C)CCC(CN2CCN(c3ccc(C(=O)NS(=O)(=O)c4ccc(NCC5CCOCC5)c([N+](=O)[O-])c4)c(Oc4cnc5[nH]ccc5c4)c3)CC2)=C(c2ccc(Cl)cc2)C1 + COc1cc2nc(C)nc(NC(C)c3cc(N)cc(C(F)(F)F)c3)c2cc1OC1CCOC1"
  tested target: "HUVEC/MSC spheroids viability"
  assigned label: "upper band"

Q. Band assignment needed for O=C(c1cc(Cc2n[nH]c(=O)c3ccccc23)ccc1F)N1CCN(C(=O)C2CC2)CC1 + C=CC(=O)N1CCN(c2nc(=O)n(-c3c(C)ccnc3C(C)C)c3nc(-c4c(O)cccc4F)c(F)cc23)C(C)C1 please.
A. upper band

Q. Which bin should I file CCNC(=O)CC1N=C(c2ccc(Cl)cc2)c2cc(OC)ccc2-n2c(C)nnc21 (stereo unspecified) + CNCc1ccccc1-c1csc(C(C)Nc2nc(C)nc3cc(OC)c(OC)cc23)c1 under?
A. lower band

----------
Listed here are molecules together with their documented viability, T/C.
Test system: HUVEC/MSC spheroids viability
Experiment: Human HUVEC/MSC cell line growth inhibition [KRAS2];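 further: percent of DMSO vehicle control luminescence so 100% = untreated viability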
Conditions: second compound 3.16 µM; first compound 0.01 µM; active compounds read low
Source text: Multicellular complex tumor spheroid response to RAS pathway inhibitors in combination with a targeted agents in patient-derived cell lines with oncogenic KRAS variants from multiple cancer types A high-throughput screen of multi-cell type tumor spheroids was designed to identify active combinations of targeted small molecules and KRAS pathway inhibitors. […] Compounds. […] If the clinical Cmax for an agent had not been determined, the highest concentration tested was 10 microM. […]
Hi! Could you send only the number? It should be in %, unit omitted.

# example entries with known answers
- molecule: "Cn1ncnc1[C@H]1c2n[nH]c(=O)c3cc(F)cc(c23)N[C@@H]1c1ccc(F)cc1 + COc1cc2nc(C)nc(NC(C)c3cc(N)cc(C(F)(F)F)c3)c2cc1OC1CCOC1"
  value measured: 101
- molecule: "CCN1CCN(Cc2ccc(Nc3ncc(F)c(-c4cc(F)c5nc(C)n(C(C)C)c5c4)n3)nc2)CC1 + CNCc1ccccc1-c1csc(C(C)Nc2nc(C)nc3cc(OC)c(OC)cc23)c1"
  value measured: 103
- molecule: "CC(C)n1nc(-c2ccc3oc(N)nc3c2)c2c(N)ncnc21 + CNCc1ccccc1-c1csc(C(C)Nc2nc(C)nc3cc(OC)c(OC)cc23)c1"
  value measured: 40.7
- molecule: "CCN1CCN(Cc2ccc(Nc3ncc(F)c(-c4cc(F)c5nc(C)n(C(C)C)c5c4)n3)nc2)CC1 + C=CC(=O)N1CCN(c2nc(=O)n(-c3c(C)ccnc3C(C)C)c3nc(-c4c(O)cccc4F)c(F)cc23)C(C)C1"
  value measured: 111

# evaluate next
Q. Quick check: viability, T/C on HUVEC/MSC spheroids viability, item CN(C)C/C=C/C(=O)Nc1cc2c(Nc3ccc(F)c(Cl)c3)ncnc2cc1O[C@H]1CCOC1 + CC1OCC2(CCN(c3cnc(Sc4ccnc(N)c4Cl)c(N)n3)CC2)C1N ?
A. 94.1

----------
System: HUVEC/MSC spheroids viability
Assay: Human HUVEC/MSC cell line growth inhibition [KRAS2];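 further: percent of DMSO vehicle control luminescence so 100% = untreated viability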
Settings: second compound 3.16 µM; first compound 0.316 µM; active compounds read low
property measured: viability, T/C (%)
Lab book: enter the figure in %, no units written.

Q. Query: viability, T/C; subject: COc1cc2nccc(Oc3ccc(NC(=O)C4(C(=O)Nc5ccc(F)cc5)CC4)cc3)c2cc1OC + COc1cc2nc(C)nc(NC(C)c3cc(N)cc(C(F)(F)F)c3)c2cc1OC1CCOC1
A. 60.9

Q. Return reported viability, T/C; argument: Cn1nccc1Nc1nccc(-c2cc3c(s2)C(C)(C)N(CCN2CCOCC2)C3=O)n1 + C=CC(=O)N1CCN(c2nc(=O)n(-c3c(C)ccnc3C(C)C)c3nc(-c4c(O)cccc4F)c(F)cc23)C(C)C1
A. 112

Q. Could you tell me which viability, T/C is on file for COc1cc2nccc(Oc3ccc(NC(=O)C4(C(=O)Nc5ccc(F)cc5)CC4)cc3)c2cc1OC + CNCc1ccccc1-c1csc(C(C)Nc2nc(C)nc3cc(OC)c(OC)cc23)c1 ?
A. 108

Q. Which viability, T/C is reported for this compound? COc1cc(Nc2ncc3c(n2)-c2ccc(Cl)cc2C(c2c(F)cccc2OC)=NC3)ccc1C(=O)O + C=CC(=O)N1CCN(c2nc(=O)n(-c3c(C)ccnc3C(C)C)c3nc(-c4c(O)cccc4F)c(F)cc23)C(C)C1
A. 110

Q. Given the compound CCNC(=O)CC1N=C(c2ccc(Cl)cc2)c2cc(OC)ccc2-n2c(C)nnc21 (stereo not given) + C=CC(=O)N1CCN(c2nc(=O)n(-c3c(C)ccnc3C(C)C)c3nc(-c4c(O)cccc4F)c(F)cc23)C(C)C1 , what is its reported viability, T/C?
A. 150

----------
Test system: HUVEC/MSC spheroids viability
Experiment: Human HUVEC/MSC cell line growth inhibition [KRAS2];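 further: percent of DMSO vehicle control luminescence so 100% = untreated viability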
Conditions: second compound 1 µM; first compound 0.316 µM; active compounds read low
Entries and their viability, T/C values follow.
Give just the numeric value; % need not be written.

- molecule: "COc1cc2nccc(Oc3ccc(NC(=O)C4(C(=O)Nc5ccc(F)cc5)CC4)cc3)c2cc1OC + C=CC(=O)N1CCN(c2nc(=O)n(-c3c(C)ccnc3C(C)C)c3nc(-c4c(O)cccc4F)c(F)cc23)C(C)C1"
  u: "%"
  viability, T/C: 111

Q. Need viability, T/C of CC1(C)CCC(CN2CCN(c3ccc(C(=O)NS(=O)(=O)c4ccc(NCC5CCOCC5)c([N+](=O)[O-])c4)c(Oc4cnc5[nH]ccc5c4)c3)CC2)=C(c2ccc(Cl)cc2)C1 + CNCc1ccccc1-c1csc(C(C)Nc2nc(C)nc3cc(OC)c(OC)cc23)c1 , thanks.
A. 90.9

Q. Quick one: viability, T/C for COC(=O)c1ccc2c(C(=Nc3ccc(N(C)C(=O)CN4CCN(C)CC4)cc3)c3ccccc3)c(O)[nH]c2c1 + CC1OCC2(CCN(c3cnc(Sc4ccnc(N)c4Cl)c(N)n3)CC2)C1N ?
A. 74.2

Q. Find the recorded viability, T/C belonging to O=C(c1cc(Cc2n[nH]c(=O)c3ccccc23)ccc1F)N1CCN(C(=O)C2CC2)CC1 + CC1OCC2(CCN(c3cnc(Sc4ccnc(N)c4Cl)c(N)n3)CC2)C1N and report it.
A. 95.6

Q. Item CCNC(=O)CC1N=C(c2ccc(Cl)cc2)c2cc(OC)ccc2-n2c(C)nnc21 (stereo not given) + CC1OCC2(CCN(c3cnc(Sc4ccnc(N)c4Cl)c(N)n3)CC2)C1N has what recorded viability, T/C?
A. 76.6

Q. Requested read-out: viability, T/C. Entry: CC1(C)CCC(CN2CCN(c3ccc(C(=O)NS(=O)(=O)c4ccc(NCC5CCOCC5)c([N+](=O)[O-])c4)c(Oc4cnc5[nH]ccc5c4)c3)CC2)=C(c2ccc(Cl)cc2)C1 + CC1OCC2(CCN(c3cnc(Sc4ccnc(N)c4Cl)c(N)n3)CC2)C1N
A. 102

Q. Which viability, T/C value is on record for CCN1CCN(Cc2ccc(Nc3ncc(F)c(-c4cc(F)c5nc(C)n(C(C)C)c5c4)n3)nc2)CC1 + CNCc1ccccc1-c1csc(C(C)Nc2nc(C)nc3cc(OC)c(OC)cc23)c1 ?
A. 114

Q. Record request: viability, T/C value, item CC(C)NCC(C(=O)N1CCN(c2ncnc3c2C(C)CC3O)CC1)c1ccc(Cl)cc1 (stereo not given) + CC1OCC2(CCN(c3cnc(Sc4ccnc(N)c4Cl)c(N)n3)CC2)C1N
A. 69.8

Q. Look up viability, T/C: CC1OCC2(CCN(c3cnc(Sc4ccnc(N)c4Cl)c(N)n3)CC2)C1N (stereo not given) + CNCc1ccccc1-c1csc(C(C)Nc2nc(C)nc3cc(OC)c(OC)cc23)c1
A. 79.1

Q. I have this molecule here, CC1(C)CCC(CN2CCN(c3ccc(C(=O)NS(=O)(=O)c4ccc(NCC5CCOCC5)c([N+](=O)[O-])c4)c(Oc4cnc5[nH]ccc5c4)c3)CC2)=C(c2ccc(Cl)cc2)C1 + C=CC(=O)N1CCN(c2nc(=O)n(-c3c(C)ccnc3C(C)C)c3nc(-c4c(O)cccc4F)c(F)cc23)C(C)C1 , and I need its recorded viability, T/C.
A. 125
